Quick reference: TGI of the listed items.
# System: RXF 393 renal
# Assay name: NCI tumour cell line growth inhibition, 48 h

Answered cases to consult:
Molecule	Result
CN(CCCCCl)P(=O)(OCCS(=O)(=O)CC(NC(=O)CCC(N)C(=O)O)C(=O)NC(C(=O)O)c1ccccc1)OCC1OC(n2cc(F)c(=O)[nH]c2=O)CC1O (stereo not drawn)	> 100 µM
CCOc1nc(N)nc(C)c1N=Nc1ccc(Cl)cc1	> 100 µM

Now consider a different molecule.
Asked: Which TGI reading was recorded for the molecule C=CCOC(=O)C1C2OC3(C(C(=O)OC)=C2C(=O)OC)c2ccccc2CCC13 (stereo not drawn) ?
Given back: > 10 µM

Each recorded value in this set is attributed to PubChem BioAssay (NCI).
